B1: glmS ribozyme (parent)
chain: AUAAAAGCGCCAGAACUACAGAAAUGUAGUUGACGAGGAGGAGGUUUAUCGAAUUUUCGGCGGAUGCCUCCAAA

Variants of: B1
Experiment: self-cleavage kobs at 2500 uM GlcN6P; higher = faster cleavage; RNA array
Details: with glucosamine-6-phosphate
Variants at the floor of the assay were thinned out.
MEASURED QUANTITY: self-cleavage kobs at 2500 uM GlcN6P

Example results:
1. C11U U49G C58U G60C; < 1e-05 s⁻¹
2. U45G A53U; 0.00274 s⁻¹
3. A15C U47G G51A U56C; < 1e-05 s⁻¹
4. A33C U49C C70U; < 1e-05 s⁻¹
5. G13A G32A; 0.00129 s⁻¹

Enquiry: Item G40U U49A G62C C68U has what recorded self-cleavage kobs at 2500 uM GlcN6P?
Return: < 1e-05 s⁻¹

Enquiry: Quick one: G60U C71A
Return: < 1e-05 s⁻¹

Enquiry: Quick one: A12C A52U C71U
Return: 0.000116 s⁻¹

Enquiry: Quick one: G59U C67U
Return: 3.07e-05 s⁻¹

Enquiry: Quick one: A15G G35A U46C A53C
Return: < 1e-05 s⁻¹

Where do these numbers come from? They come from the supplement of paper PMC7125110.
